Biological target: PIK3CA (human) (UniProt P42336)
Sequence (P42336 whole entry, looked up): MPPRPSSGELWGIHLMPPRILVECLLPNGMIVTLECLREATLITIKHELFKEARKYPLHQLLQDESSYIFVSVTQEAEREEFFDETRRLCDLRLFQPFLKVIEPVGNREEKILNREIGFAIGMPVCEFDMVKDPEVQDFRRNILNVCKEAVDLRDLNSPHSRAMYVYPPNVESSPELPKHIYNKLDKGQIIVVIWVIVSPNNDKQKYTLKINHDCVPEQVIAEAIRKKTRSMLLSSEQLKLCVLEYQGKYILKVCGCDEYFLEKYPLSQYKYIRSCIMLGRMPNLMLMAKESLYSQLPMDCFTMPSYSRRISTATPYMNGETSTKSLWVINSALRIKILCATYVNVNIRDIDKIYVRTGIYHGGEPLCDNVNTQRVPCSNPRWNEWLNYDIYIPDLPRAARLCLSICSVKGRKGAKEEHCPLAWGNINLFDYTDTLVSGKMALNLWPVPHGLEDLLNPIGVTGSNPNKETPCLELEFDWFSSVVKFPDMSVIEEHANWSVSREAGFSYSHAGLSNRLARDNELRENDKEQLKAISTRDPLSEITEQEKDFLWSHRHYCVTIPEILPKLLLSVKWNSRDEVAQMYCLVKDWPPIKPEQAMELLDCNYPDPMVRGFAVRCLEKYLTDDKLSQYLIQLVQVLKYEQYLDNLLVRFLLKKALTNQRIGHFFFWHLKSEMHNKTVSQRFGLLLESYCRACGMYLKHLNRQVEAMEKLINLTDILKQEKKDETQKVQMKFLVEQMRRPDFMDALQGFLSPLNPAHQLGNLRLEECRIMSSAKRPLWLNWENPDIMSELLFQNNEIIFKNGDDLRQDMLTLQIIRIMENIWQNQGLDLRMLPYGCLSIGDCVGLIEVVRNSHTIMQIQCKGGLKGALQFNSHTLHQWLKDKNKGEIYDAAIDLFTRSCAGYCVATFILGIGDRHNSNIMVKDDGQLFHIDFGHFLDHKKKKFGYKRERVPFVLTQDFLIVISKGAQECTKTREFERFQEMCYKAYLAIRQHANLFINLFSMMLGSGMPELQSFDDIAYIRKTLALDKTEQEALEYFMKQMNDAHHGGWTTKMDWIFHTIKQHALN
Assay: Assessment of PIK3CA Kinase Activity
Reported Endpoint: IC50

Some entries whose results are on file:
In [3]: df
Out[3]:
                                   molecule   test_value
0  COc1ccc(-c2nc(N3CCOCC3)c3sc(NS(=O)(=O)c4ccc(C=CC(=O)NO)cc4)cc3n2)cn1  0.1 to 1 µM
1  COc1ccc(-c2nc(N3CCOCC3)c3sc(NCCCCC(=O)NO)cc3n2)cn1     < 0.1 µM
2  O=C(CCCCNc1cc2nc(-c3cc(O)ccc3F)nc(N3CCOCC3)c2s1)NO     < 0.1 µM
3  CS(=O)(=O)N1CCN(Cc2cc3nc(-c4ccc(OCCCCC(=O)NO)cc4)nc(N4CCOCC4)c3s2)CC1  0.1 to 1 µM
4  Cn1cc(-c2nc(N3CCOCC3)c3sc(CN(CCO)c4ncc(C(=O)NO)cn4)cc3n2)cn1  0.1 to 1 µM

Lab note: `CC(=NO)c1ccc(F)c(-c2nc(N3CCOCC3)c3sc(CN(C)c4ncc(C(=O)NO)cn4)cc3n2)c1` gave IC50 of 0.1 to 1 µM

The value of IC50 measured for the molecule `CC(=O)NCc1ccc(-c2nc(N3CCOCC3)c3sc(CN(C)c4ncc(C(=O)NO)cn4)cc3n2)cc1` turned out to be > 10 µM

The value of IC50 measured for the molecule `Nc1ncc(-c2nc(N3CCOCC3)c3sc(NS(=O)(=O)c4cccc(/C=C/C(=O)NO)c4)cc3n2)cn1` turned out to be < 0.1 µM

Lab note: `CNc1ccc(-c2nc(N3CCOCC3)c3sc(N(C)c4ncc(C(=O)NO)cn4)cc3n2)cn1` gave IC50 of < 0.1 µM

Entry CC(O)c1ccc(F)c(-c2nc(N3CCOCC3)c3sc(CN(C)c4ncc(C(=O)NO)cn4)cc3n2)c1 (stereo not drawn) ; IC50 = 0.1 to 1 µM

Memo: `CN(Cc1cc2nc(-c3ccc(C#N)cc3)nc(N3CCOCC3)c2s1)c1ncc(C(=O)NO)cn1` , reported IC50: > 10 µM

The molecule identified as `CN(Cc1cc2nc(-c3ccc(N)c([N+](=O)[O-])c3)nc(N3CCOCC3)c2s1)c1ncc(C(=O)NO)cn1` registered its IC50 at < 0.1 µM

response.value for `CN(Cc1cc2nc(-c3ccc(F)cc3)nc(N3CCOCC3)c2s1)c1ncc(C(=O)NO)cn1` (field: IC50) = > 10 µM

The reported IC50 of the molecule `CC(C)OC(=O)Nc1ccc(-c2nc(N3CCOCC3)c3sc(CN(C)c4ncc(C(=O)NO)cn4)cc3n2)cc1` was > 10 µM

Value of IC50 reported for the molecule `Cc1ncc(-c2nc(N3CCOCC3)c3sc(NCCCCC(=O)NO)cc3n2)cn1` is < 0.1 µM

// sample `Nc1ncc(-c2nc(N3CCOCC3)c3sc(NCCCCC(=O)NO)cc3n2)cn1` , its IC50 was < 0.1 µM

Entry `CC(=O)c1cccc(-c2nc(N3CCOCC3)c3sc(CN(C)c4ncc(C(=O)NO)cn4)cc3n2)c1` ; IC50 = 0.1 to 1 µM

response.value for `CCN(CC)c1ccc(-c2nc(N3CCOCC3)c3sc(CN(C)c4ncc(C(=O)NO)cn4)cc3n2)cc1` (field: IC50) = > 10 µM

###

Biological target: PIK3CA (human) (UniProt P42336)
Recorded IC50, one value per entry.

                                 smiles_str      test_value
0  CNc1ccc(-c2nc(N3CCOCC3)c3sc(CNCc4nc5cc(C=CC(=O)NO)ccc5n4C)cc3n2)cn1        < 100 nM
1  Nc1ccc(-c2nc(N3CCOCC3)c3sc(S(=O)(=O)NCC4CCN(c5ncc(C(=O)NO)cn5)CC4)cc3n2)cc1  100 to 1000 nM

// next entry
Tested on PIK3CA (human) (UniProt P42336), the item `CNc1ccc(-c2nc(N3CCOCC3)c3sc(CN(C)c4ncc(C(=O)NO)cn4)cc3n2)cn1` showed IC50 equal to < 100 nM

###

Hi! I'm sharing some IC50 results obtained with PIK3CA (human) (UniProt P42336).

In [3]: df
Out[3]:
                                 smiles_str                    system_tested      test_value
0  CCNc1ccc(-c2nc(N3CCOCC3)c3sc(CN(C)c4ncc(C(=O)NO)cn4)cc3n2)cc1  PIK3CA (human) (UniProt P42336)      > 10000 nM
1  CN(Cc1cc2nc(-c3ccc(O)nc3)nc(N3CCOCC3)c2s1)c1ncc(C(=O)NO)cn1  PIK3CA (human) (UniProt P42336)  100 to 1000 nM
2  CN(Cc1cc2nc(-c3ccc(N)c(CO)c3)nc(N3CCOCC3)c2s1)c1ncc(C(=O)NO)cn1  PIK3CA (human) (UniProt P42336)        < 100 nM

Please look at the following compound next.
Summary for this compound, `COc1ccc(Nc2nc(-c3cccc4[nH]ncc34)nc3cc(CN(C)c4ncc(C(=O)NO)cn4)sc23)cc1` : IC50 is > 10000 nM

###

pIC50: −log10 of the molar value.
This document collects pIC50 values reported for PIK3CA (human).

In [3]: df
Out[3]:
                                 smiles_str  reported_endpoint    test_value
0  CN(Cc1cc2nc(-c3cnn(C)c3)nc(N3CCOCC3)c2s1)c1ncc(C(=O)NO)cn1              pIC50  6.00 to 7.00
1  CS(=O)(=O)N1CCN(Cc2cc3nc(-c4ccc(OCCCCCCC(=O)NO)cc4)nc(N4CCOCC4)c3s2)CC1              pIC50  6.00 to 7.00

Moving on to another molecule below.
Lab entry: PIK3CA (human) assay, molecule `C[C@@H](O)c1cccc(-c2nc(N3CCOCC3)c3sc(CN(C)c4ncc(C(=O)NO)cn4)cc3n2)c1` , pIC50 = 6.00 to 7.00
